Recorded values, source patent US20250051321A1.

Measured IC50, listed per entry.
- System: plasma LPA 18:1 and LPA 18:2
- protocol: Human plasma ex vivo assay (LPA 18:1 / 18:2 by LC-MS/MS)
- Type: biochemical
- cond: 37° C., 2 hours, LPA 18:1, read-out: Human plasma ex vivo assay IC50 (18:1 LPA)
Answer with a number only, understood to be in nM.

Recorded results for 5 compounds are shown here.
Sure, the documented IC50 for CN(c1nc(-c2ccc(F)cc2)c(C#N)s1)c1c2c(nc3c(F)cc(N4CC5(CN(C(=O)[C@@]6(O)CCOC6)C5)C4)cc13)[C@@H](O)CC2 (single isomer, unassigned) [Example E19-2a] is 207

Summary for this compound, C[C@H]1CN(CC(=O)N2CC(O)C2)CCN1c1cc(F)c2nc3c(c(N(C)c4nc(-c5ccc(F)cc5)c(C#N)s4)c2c1)CC[C@@H]3O (single isomer, unassigned) [Example E7-a] : IC50 is 369

# compound CN(c1nc(-c2ccc(F)cc2)c(C#N)s1)c1c2c(nc3ccc(N4CCN(CC(=O)N5CC(O)C5)CC4)nc13)COC2 [Example A13] ; its IC50 = 194

Reported IC50 ( CN(c1nc(-c2ccc(F)cc2)c(C#N)s1)c1c2c(nc3c(F)cc(N4CCN(CC(=O)N5CC(C)(O)C5)CC4)cc13)[C@@H](O)CC2 (single isomer, unassigned) [Example E10-a] ) = 384

The reported value for CN(c1nc(-c2ccc(F)cc2)c(C#N)s1)c1c2c(nc3c(F)cc(N4CC5(CCN(C(=O)[C@@H]6CCOC6)CC5)C4)cc13)CCC2 [Example C9] in terms of IC50 is 216

---
For this compound ( CN(c1nc(-c2ccc(F)cc2)c(C#N)s1)c1c2c(nc3c(F)cc(N4CC5(CN(C(=O)C6(O)CCOCC6)C5)C4)cc13)C(O)CC2 (centres unmarked) [Example E15] ), measured IC50 is 266
